molecular target: Canine CCK1: Variant #1 (Canis lupus familiaris, UniProt Q5D0K2, G258S/L413V/V400A); construct: plasmid DNAs containing the respective variant canine CCK1 receptor cDNAs and the wild type cDNA were transiently transfected; expressed in transfected cells; host or cells: HEK-293 cells, transient; assay: competition binding at variant #1 canine CCK1 receptor transiently transfected in HEK cells; details: Canine CCK1 variant #1, transiently transfected in HEK cells; n = 3, ± s.e. mean; read-out: pKI (affinity value, -log equilibrium dissociation constant) (converted)
Sequence (Q5D0K2 whole entry G258S/V400A/L413V): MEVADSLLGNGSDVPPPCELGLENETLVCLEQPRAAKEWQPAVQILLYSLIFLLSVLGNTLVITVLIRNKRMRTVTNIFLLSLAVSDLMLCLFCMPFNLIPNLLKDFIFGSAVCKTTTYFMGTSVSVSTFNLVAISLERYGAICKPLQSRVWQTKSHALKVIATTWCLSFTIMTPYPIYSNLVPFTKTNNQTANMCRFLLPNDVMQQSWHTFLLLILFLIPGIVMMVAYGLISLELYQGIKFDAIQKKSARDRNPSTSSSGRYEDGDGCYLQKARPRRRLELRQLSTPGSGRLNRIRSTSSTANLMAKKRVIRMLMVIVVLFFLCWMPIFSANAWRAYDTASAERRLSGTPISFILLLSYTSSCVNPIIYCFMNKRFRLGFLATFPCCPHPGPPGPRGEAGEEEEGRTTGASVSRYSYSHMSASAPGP
Result type: Ki (nM)
Your answer should be a plain number; it is taken to be in nM.

Supply Ki value. Item: Cc1cccc(NC(=O)N[C@@H]2N=C(c3ccccc3)c3ccccc3N(C)C2=O)c1 [L-365,260] 155

Supply Ki value. Item: CCCCCN(CCCOC)C(=O)[C@@H](CCC(=O)O)NC(=O)c1ccc(Cl)c(Cl)c1 [dexloxiglumide] 16.6

Supply Ki value. Item: CNc1cccc(NC(=O)N[C@@H]2N=C(c3ccccn3)c3ccccc3N(CC(=O)C(C)(C)C)C2=O)c1 [YF476] 15.1

Supply Ki value. Item: Cc1cccc(NC(=O)N[C@@H]2N=C(c3ccccc3)c3ccccc3N(CC(=O)c3ccccc3C)C2=O)c1 [YM022] 8.32
